test: physchem; conditions: toluene
Quantity Name: remaining at 15 h (%)
The figure you give is taken to be in %; do not add the unit.

Q) Need remaining at 15 h of CC1=C(O)C(=O)C(C)O1 (stereo not shown) [Pineapple Ketone, 2,5-dimethyl-4-hydroxy-3(2H)-furanone] , thanks.
A) 24

====

assay: physchem; conditions: toluene
Quantity Name: remaining at 138 h (%)
The figure you give is taken to be in %; do not add the unit.

Q) Need remaining at 138 h of CC1=C(O)C(=O)C(C)O1 (stereo not shown) [Pineapple Ketone, 2,5-dimethyl-4-hydroxy-3(2H)-furanone] , thanks.
A) 4

====

experiment: physchem; details: toluene
Quantity Name: remaining at 41 h (%)
The figure you give is taken to be in %; do not add the unit.

Q) Need remaining at 41 h of CC1=C(O)C(=O)C(C)O1 (centres unmarked) [Pineapple Ketone, 2,5-dimethyl-4-hydroxy-3(2H)-furanone] , thanks.
A) 18

Q) Need remaining at 41 h of CCOC(C)OC1=C(C)OC(C)C1=O (centres unmarked) , thanks.
A) 93
